B1: Azoarcus group I ribozyme (parent)
chain: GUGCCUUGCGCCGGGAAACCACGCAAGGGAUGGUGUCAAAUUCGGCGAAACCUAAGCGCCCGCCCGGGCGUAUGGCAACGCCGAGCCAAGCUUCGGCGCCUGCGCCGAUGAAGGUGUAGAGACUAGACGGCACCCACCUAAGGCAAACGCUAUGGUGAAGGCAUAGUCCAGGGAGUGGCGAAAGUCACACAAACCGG

# Variants of: B1
# Test method notes: reverse-splicing fitness (ratio to wild type); higher = more active; in vitro selection; Mg2+ level not given
Criterion: reverse-splicing fitness meeting or surpassing 0.01. Met: label 1. Not met: label 0.

# count of solved cases: 5
stdin: Is it the case that A111C C150G C169U U176A has reverse-splicing fitness reaching or exceeding 0.01?
stdout: label 0

stdin: What do you get for C82A A120U A145G C150U C169A U176A ?
stdout: label 0

stdin: Note, next up: C82G A111G A120G A145G C150G C169U U176A
stdout: label 1

stdin: Same read-out for C82A A120U A145U U176C ?
stdout: label 1

stdin: Can you check C82G A120G A145G U176G next?
stdout: label 0

***
stdin: Can C82G A111U A145U C150A U176A be said to have reverse-splicing fitness at or above 0.01?
stdout: label 1

stdin: Then C82A A111G A120C A145G C150G U176C ?
stdout: label 1

stdin: And for C82U A111U A120C A145U C150G C169U U176A ?
stdout: label 0

stdin: Follow-up entry: C82G A111G A120U C150G C169A
stdout: label 0

stdin: Entry to check: C82A A111U A120U C150G C169G
stdout: label 0

stdin: Please do the same for C82A A111U A120G A145G C150A C169G U176A as well.
stdout: label 1

stdin: Now consider A111U A145U C150U C169A U176G .
stdout: label 0

stdin: How about this variant: C82A A111C A120U A145C C169A U176G
stdout: label 0
